This collection of values is drawn from ChEMBL document CHEMBL3232928.

Molecular target: DNA gyrase subunit B (Staphylococcus aureus)
Sequence (P0A0K8 whole entry): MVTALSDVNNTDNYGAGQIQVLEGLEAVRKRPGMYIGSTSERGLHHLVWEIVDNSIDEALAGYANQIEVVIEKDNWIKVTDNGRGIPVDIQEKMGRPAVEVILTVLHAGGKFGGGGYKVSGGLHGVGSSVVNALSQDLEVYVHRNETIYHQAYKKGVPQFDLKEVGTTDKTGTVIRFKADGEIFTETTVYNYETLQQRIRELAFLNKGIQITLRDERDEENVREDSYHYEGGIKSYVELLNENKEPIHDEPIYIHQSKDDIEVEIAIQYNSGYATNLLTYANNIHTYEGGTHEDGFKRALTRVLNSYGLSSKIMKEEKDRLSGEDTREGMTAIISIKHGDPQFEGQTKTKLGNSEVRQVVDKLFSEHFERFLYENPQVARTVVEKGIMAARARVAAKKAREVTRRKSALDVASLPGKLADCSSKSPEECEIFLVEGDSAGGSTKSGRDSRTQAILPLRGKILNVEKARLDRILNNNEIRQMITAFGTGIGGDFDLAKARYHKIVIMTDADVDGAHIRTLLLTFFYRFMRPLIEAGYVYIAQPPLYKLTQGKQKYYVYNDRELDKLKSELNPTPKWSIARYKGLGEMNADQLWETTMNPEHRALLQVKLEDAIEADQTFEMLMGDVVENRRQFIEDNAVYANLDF
Assay: Inhibition of ATPase activity in Staphylococcus aureus GyrB tetramer in presence of Escherichia coli GyrA by ammonium molybdate/malachite green-based absorbance assay
pIC50: −log10 of the molar value.
So basically: pIC50 at 6 or higher? That is label 1. Lower than 6? That is label 0.

mol=CNC(=O)Nc1ccccn1 qualitative_label="label 0"
mol=CCNC(=O)Nc1cc(-c2nc(C(F)(F)F)cs2)c(-c2cncc(-c3noc(=O)[nH]3)c2)cn1 qualitative_label="label 1"
mol=CCCNC(=O)Nc1ccccn1 qualitative_label="label 0"
mol=CCNC(=O)Nc1ccc(-c2cccc(C(=O)O)c2)cn1 qualitative_label="label 0"
mol=CCNC(=O)Nc1ccccn1 qualitative_label="label 0"
mol=CCNC(=O)Nc1ccc(-c2ncc(C(N)=O)s2)cn1 qualitative_label="label 1"

----------
Test system: Moraxella catarrhalis
Test: Antibacterial activity against wild type Moraxella catarrhalis ATCC 43617 assessed as growth inhibition after 18 to 24 hrs by CLSI broth microdilution method
Type: functional
Quick reference: log10 MIC of the listed items.
ASSAY_READOUT: log10 MIC (log10 of the value in µg/mL)

mol=CCNC(=O)Nc1cc(-c2nc(C(F)(F)F)cs2)c(-c2cncc(-c3noc(=O)[nH]3)c2)cn1 experimental_result=1.38
mol=CCNC(=O)Nc1ccc(-c2ncc(C(N)=O)s2)cn1 experimental_result=0.90
mol=CCNC(=O)Nc1cc(-c2nc(C(F)(F)F)cs2)c(-c2cncc(/C(N)=N/O)c2)cn1 experimental_result=-0.74
mol=CCNC(=O)Nc1cc(-c2nc(C(F)(F)F)cs2)c(-c2cncc(C(=O)O)c2)cn1 experimental_result=1.81
mol=CCNC(=O)Nc1ccc(-c2cccc(C(=O)O)c2)cn1 experimental_result=1.62
mol=CCNC(=O)Nc1cc(-c2nc(C(F)(F)F)cs2)c(-c2cncc(-c3nc(C)no3)c2)cn1 experimental_result=-0.13
mol=CCNC(=O)Nc1cc(-c2nc(C(F)(F)F)cs2)c(-c2cncc(-c3n[nH]c(=O)o3)c2)cn1 experimental_result=-1.40

----------
System: Staphylococcus aureus
Experiment: Inhibition of DNA synthesis in methicillin-sensitive wild type Staphylococcus aureus over 1 hr by [3H]thymidine incorporation assay
Format: functional, organism-based
pIC50: −log10 of the molar value.
ASSAY_READOUT: pIC50

mol=CCNC(=O)Nc1cc(-c2nc(C(F)(F)F)cs2)c(-c2cncc(C(N)=O)c2)cn1 assay_readout=pIC50 experimental_result=5.80
mol=O=C(O)c1cn(C2CC2)c2cc(N3CCNCC3)c(F)cc2c1=O assay_readout=pIC50 experimental_result=5.41

----------
System: Escherichia coli
Experiment: Antibacterial activity against tolC efflux pump deficient Escherichia coli W3110 assessed as growth inhibition after 18 to 24 hrs by CLSI broth microdilution method
Type: functional
The entries below are paired with their reported MIC.
ASSAY_READOUT: MIC

mol=CCNC(=O)Nc1cc(-c2nc(C(F)(F)F)cs2)c(-c2cncc(-c3c(C)noc3C)c2)cn1 experimental_system="Escherichia coli" assay_readout=MIC experimental_result="> 9 µg/mL"
mol=CCNC(=O)Nc1ccc(-c2ncc(C(N)=O)s2)cn1 experimental_system="Escherichia coli" assay_readout=MIC experimental_result="16 µg/mL"
mol=CCNC(=O)Nc1cc(-c2nc(C(F)(F)F)cs2)c(-c2cncc(/C(N)=N/O)c2)cn1 experimental_system="Escherichia coli" assay_readout=MIC experimental_result="0.18 µg/mL"
mol=CCNC(=O)Nc1cc(Cl)c(-c2cncc(C(=O)O)c2)cn1 experimental_system="Escherichia coli" assay_readout=MIC experimental_result="> 64 µg/mL"
mol=CCNC(=O)Nc1ccc(-c2nc3cccc(C(=O)O)c3s2)cn1 experimental_system="Escherichia coli" assay_readout=MIC experimental_result="8 µg/mL"
mol=CCNC(=O)Nc1cc(Br)c(-c2cncc(C(=O)O)c2)cn1 experimental_system="Escherichia coli" assay_readout=MIC experimental_result="> 9 µg/mL"
